System: BT-549
Assay: NCI tumour cell line growth inhibition, 48 h
The source made the active and inactive calls. Rule as the data show it: active = GI50 up to about 1.1 µM and inactive = higher.
// one of yes = active, no = inactive, no free text

>>> category("COc1cccc(C(=O)C#Cc2cnc(OC)nc2OC)c1")
"yes"
>>> category("C[C@@H]1CC(=O)C[C@@H]2CC[C@H]3[C@@H]4CC[C@H](OC(=O)c5cccc6cc7ccccc7nc56)[C@H]4CC[C@@H]3[C@H]21")
"no"
>>> category("COc1ccc(/C=C2/SC(c3ccccc3)N(NC(=O)CCCCCCCCC(=O)NN3C(=O)/C(=C\\c4ccc(OC)c(OC)c4)SC3c3ccccc3)C2=O)cc1OC (centres undefined)")
"no"

Next:
[ask] Would you mind telling me which call this test gave `O=C1c2ccccc2C(=O)c2c1sc1nc3ccccc3n21` ?
[reply] no
